Listed molecules paired with reported logP

structureString: Cc1cc(C)cc(NCc2cnc3nc(N)nc(N)c3c2C)c1
logP: 2.11

structureString: Cc1c(CNc2ccc(Cl)cc2)cnc2nc(N)nc(N)c12
logP: 2.03

structureString: Cc1c(CNc2ccc(Cl)c(Cl)c2)cnc2nc(N)nc(N)c12
logP: 2.06

structureString: CC(=O)c1ccc(NCc2cnc3nc(N)nc(N)c3c2C)cc1
logP: 1.45

structureString: Cc1c(Cl)cccc1NCc1cnc2nc(N)nc(N)c2c1C
logP: 2.04

structureString: Cc1ccc(NCc2cnc3nc(N)nc(N)c3c2C)cc1Cl
logP: 2.03

====

Threshold 2: logP strictly smaller gives 1, otherwise 0.

structureString: CCOc1ccccc1NCc1cnc2nc(N)nc(N)c2c1C
answerLabel: 0
--
structureString: CC(=O)c1cccc(NCc2cnc3nc(N)nc(N)c3c2C)c1
answerLabel: 1
--
structureString: Cc1c(CNc2cccc(Cl)c2Cl)cnc2nc(N)nc(N)c12
answerLabel: 0
--
structureString: Cc1ccc(C)c(NCc2cnc3nc(N)nc(N)c3c2C)c1
answerLabel: 0
